Numbers sourced from patent US11981680B2.

molecular target: human PAD4 (hPAD4) (Homo sapiens (Human)); experiment: RFMS Human PAD4 Functional Assay; format: biochemical; settings: rapid-fire mass spectrum (RFMS) assay; 5 nM hPAD4 enzyme, 250 μM BAEE, 30 min preincubation at 37° C.
pIC50: −log10 of the molar value.
MEASUREMENT NAME: pIC50

Solved entries (count: 3):
COMPOUND	pIC50
COc1cc(C(=O)N2C[C@H]3CC[C@@H]2[C@@H]3N)cc2nc(-c3cc4scc(Br)c4n3CC3CC3)n(C)c12	7.46
COc1cc(C(=O)N2C[C@H]3CC[C@@H]2[C@@H]3N)cc2nc(-c3cc4scc(-c5ccc(O)c(Cl)c5)c4n3CC3CC3)n(C)c12	6.82
COc1cc(C(=O)N2C[C@H]3CC[C@@H]2[C@@H]3N)cc2nc(-c3cc4scc(C5CNC5)c4n3CC3CC3)n(C)c12	6.90

[1] COc1cc(C(=O)N2C[C@H]3CC[C@@H]2[C@@H]3N)cc2nc(-c3cc4scc(-c5cnc(C#N)nc5)c4n3CC3CC3)n(C)c12
[2] COc1cc(C(=O)N2C[C@H]3CC[C@@H]2[C@@H]3N)cc2nc(-c3cc4scc(CCC(N)=O)c4n3CC3CC3)n(C)c12
**Q:** // pick larger pIC50 from pair: 1 vs 2 Write down the label attached to your selection.
**A:** 2
(2: 7.33, 1: 6.85)

* * *

target: human PAD4 (hPAD4) (Homo sapiens (Human)); assay: RFMS Human PAD4 Functional Assay; details: rapid-fire mass spectrum (RFMS) assay; 5 nM hPAD4 enzyme, 250 μM BAEE, 30 min preincubation at 37° C.
MEASUREMENT NAME: IC50 (nM)

SAMPLE SMILES	UNIT TEXT	OBS VALUE
COc1cc(C(=O)N2C[C@H]3CC[C@@H]2[C@@H]3N)cc2nc(-c3cc4scc(CC5CNC5)c4n3CC3CC3)n(C)c12	nM	165
COc1cc(C(=O)N2C[C@H]3CC[C@@H]2[C@@H]3N)cc2nc(-c3cc4scc(-c5ccc[nH]5)c4n3CC3CC3)n(C)c12	nM	173
COc1cc(C(=O)N2C[C@H]3CC[C@@H]2[C@@H]3N)cc2nc(-c3cc4scc(-c5ccncc5)c4n3CC3CC3)n(C)c12	nM	147

* * *

biological target: human PAD4 (hPAD4) (Homo sapiens (Human), UniProt Q9UM07); assay: RFMS Human PAD4 Functional Assay; conditions: rapid-fire mass spectrum (RFMS) assay; 5 nM hPAD4 enzyme, 250 μM BAEE, 30 min preincubation at 37° C.
Sequence (Q9UM07 whole entry): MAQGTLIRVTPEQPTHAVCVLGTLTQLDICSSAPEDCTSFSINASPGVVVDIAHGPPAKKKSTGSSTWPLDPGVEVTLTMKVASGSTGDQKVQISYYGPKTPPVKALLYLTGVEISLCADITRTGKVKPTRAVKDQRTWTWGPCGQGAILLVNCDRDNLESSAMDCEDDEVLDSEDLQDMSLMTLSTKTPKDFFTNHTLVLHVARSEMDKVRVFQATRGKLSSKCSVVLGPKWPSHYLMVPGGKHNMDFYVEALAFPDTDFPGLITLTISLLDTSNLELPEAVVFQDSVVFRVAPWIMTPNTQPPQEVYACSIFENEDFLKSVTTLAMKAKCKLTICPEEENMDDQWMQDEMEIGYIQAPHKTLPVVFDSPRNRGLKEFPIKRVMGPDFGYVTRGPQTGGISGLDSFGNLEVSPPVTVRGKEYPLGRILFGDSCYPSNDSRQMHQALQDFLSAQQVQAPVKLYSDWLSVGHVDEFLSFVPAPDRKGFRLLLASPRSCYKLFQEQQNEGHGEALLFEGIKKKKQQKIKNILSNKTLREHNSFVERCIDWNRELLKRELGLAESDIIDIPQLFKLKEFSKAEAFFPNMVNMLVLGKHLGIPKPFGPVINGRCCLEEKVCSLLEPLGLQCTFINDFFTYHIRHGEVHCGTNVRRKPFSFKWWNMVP
pIC50: −log10 of the molar value.
MEASUREMENT NAME: pIC50

COMPOUND	MEASUREMENT NAME	OBS VALUE
COc1cc(C(=O)N2C[C@H]3CC[C@@H]2[C@@H]3N)cc2nc(-c3cc4scc(-c5cnn(CC(F)(F)F)c5)c4n3CC3CC3)n(C)c12 [Example 42]	pIC50	7.23
COc1cc(C(=O)N2C[C@H]3CC[C@@H]2[C@@H]3N)cc2nc(-c3cc4scc(CCC#N)c4n3CC3CC3)n(C)c12 [Example 15]	pIC50	7.23
COc1cc(C(=O)N2C[C@H](N)C[C@@H](F)C2)cc2nc(-c3cc4scc(Br)c4n3CC3CC3)n(C)c12 [Example 31]	pIC50	7.22
